test system: Escherichia coli TOP10; experiment: shrunken log2 fold change of peptide-encoding DNA abundance (4.5 h post-induction vs induction); higher = less antimicrobial activity (less host growth inhibition); conditions: time post-induction: 4.5 h; library: site-saturation at positions 5, 18, 19, 20
The label depends only on shrunken log2 fold change: criterion met if it is at least 0.08, criterion not met if it is smaller.

1) RRIRWRPPRLPRPRPRPTITPRP	criterion not met
2) RRIRHRPPRLPRPRPRPTKCPRP	criterion not met
3) RRIRQRPPRLPRPRPRPFTYPRP	criterion not met
4) RRIRTRPPRLPRPRPRPLTEPRP	criterion not met
5) RRIRARPPRLPRPRPRPTYAPRP	criterion met
6) RRIRGRPPRLPRPRPRPGGWPRP	criterion met
7) RRIRLRPPRLPRPRPRPRTIPRP	criterion not met
8) RRIRRRPPRLPRPRPRPNDNPRP	criterion not met
9) RRIRARPPRLPRPRPRPYWIPRP	criterion not met
10) RRIRIRPPRLPRPRPRPCPIPRP	criterion met
11) RRIRFRPPRLPRPRPRPIDWPRP	criterion not met
12) RRIRRRPPRLPRPRPRPMEAPRP	criterion met
13) RRIRYRPPRLPRPRPRPSVDPRP	criterion not met
14) RRIRERPPRLPRPRPRPQDGPRP	criterion not met
15) RRIRERPPRLPRPRPRPEICPRP	criterion met
16) RRIRNRPPRLPRPRPRPLWYPRP	criterion not met
17) RRIRNRPPRLPRPRPRPIPGPRP	criterion not met
18) RRIRHRPPRLPRPRPRPSDFPRP	criterion not met
19) RRIRRRPPRLPRPRPRPKFIPRP	criterion not met
20) RRIRNRPPRLPRPRPRPFISPRP	criterion not met
21) RRIRHRPPRLPRPRPRPGQRPRP	criterion not met
22) RRIRFRPPRLPRPRPRPYIQPRP	criterion not met
23) RRIRVRPPRLPRPRPRPVQDPRP	criterion not met
24) RRIRKRPPRLPRPRPRPKPEPRP	criterion met
25) RRIRFRPPRLPRPRPRPQEIPRP	criterion not met
26) RRIRIRPPRLPRPRPRPCQTPRP	criterion not met
27) RRIRKRPPRLPRPRPRPHQFPRP	criterion not met
28) RRIRCRPPRLPRPRPRPISFPRP	criterion not met
29) RRIRARPPRLPRPRPRPSHEPRP	criterion met
30) RRIRGRPPRLPRPRPRPEWRPRP	criterion met
31) RRIRLRPPRLPRPRPRPADEPRP	criterion met
32) RRIRARPPRLPRPRPRPKTLPRP	criterion met

----------
test system: Escherichia coli TOP10; assay: shrunken log2 fold change of peptide-encoding DNA abundance (4.5 h post-induction vs induction); higher = less antimicrobial activity (less host growth inhibition); conditions: time post-induction: 4.5 h; library: site-saturation at positions 5, 18, 19, 20
Measured shrunken log2 fold change determines class: group A = under -0.4, group B = from -0.4 up to 0.03, group C = 0.03 and over

1. RRIRMRPPRLPRPRPRPYSIPRP	group B
2. RRIRQRPPRLPRPRPRPNSMPRP	group B
3. RRIRWRPPRLPRPRPRPRHCPRP	group C
4. RRIRFRPPRLPRPRPRPDSKPRP	group A
5. RRIRWRPPRLPRPRPRPYAMPRP	group C
6. RRIRERPPRLPRPRPRPEPDPRP	group B
7. RRIRWRPPRLPRPRPRPMDEPRP	group B
8. RRIRCRPPRLPRPRPRPLNMPRP	group A
9. RRIRPRPPRLPRPRPRPETMPRP	group B
10. RRIRRRPPRLPRPRPRPDQCPRP	group B
11. RRIRPRPPRLPRPRPRPCYAPRP	group A
12. RRIRMRPPRLPRPRPRPEGGPRP	group C
13. RRIRWRPPRLPRPRPRPMYHPRP	group A
14. RRIRMRPPRLPRPRPRPLMMPRP	group C
15. RRIRNRPPRLPRPRPRPSHDPRP	group A

----------
tested on: Escherichia coli TOP10; assay: shrunken log2 fold change of peptide-encoding DNA abundance (4.5 h post-induction vs induction); higher = less antimicrobial activity (less host growth inhibition); settings: time post-induction: 4.5 h; library: site-saturation at positions 5, 18, 19, 20
experimentalEndpoint: shrunken log2 fold change

1. RRIRMRPPRLPRPRPRPTLWPRP	0.968
2. RRIRPRPPRLPRPRPRPYQFPRP	-0.114
3. RRIRIRPPRLPRPRPRPPEQPRP	0.118
4. RRIRCRPPRLPRPRPRPSWNPRP	-0.68
5. RRIRARPPRLPRPRPRPVGQPRP	0.225
6. RRIRFRPPRLPRPRPRPTFVPRP	-0.051
7. RRIRSRPPRLPRPRPRPAIDPRP	-0.0382
8. RRIRERPPRLPRPRPRPERKPRP	0.0538
9. RRIRRRPPRLPRPRPRPANGPRP	-0.164
10. RRIRWRPPRLPRPRPRPEQEPRP	0.0529
11. RRIRDRPPRLPRPRPRPIPYPRP	-0.0147
12. RRIRYRPPRLPRPRPRPCCWPRP	0.0911
13. RRIRHRPPRLPRPRPRPSGFPRP	0.112
14. RRIRRRPPRLPRPRPRPCRKPRP	-0.444
15. RRIRGRPPRLPRPRPRPKKGPRP	0.765
16. RRIRPRPPRLPRPRPRPMPRPRP	0.238
17. RRIRMRPPRLPRPRPRPQGWPRP	1.01
18. RRIRTRPPRLPRPRPRPLIQPRP	-0.197
19. RRIRNRPPRLPRPRPRPATCPRP	-0.00428
20. RRIRIRPPRLPRPRPRPLMGPRP	-0.166
21. RRIRGRPPRLPRPRPRPPCPPRP	0.86
22. RRIRPRPPRLPRPRPRPAMFPRP	0.0516
23. RRIRDRPPRLPRPRPRPVEIPRP	-0.0399
24. RRIRMRPPRLPRPRPRPREKPRP	1.19
25. RRIRERPPRLPRPRPRPYPHPRP	-0.0727
26. RRIRRRPPRLPRPRPRPSWTPRP	0.46
27. RRIRFRPPRLPRPRPRPENCPRP	-0.855
28. RRIRLRPPRLPRPRPRPGIPPRP	0.215
29. RRIRWRPPRLPRPRPRPFCKPRP	-0.13
30. RRIRLRPPRLPRPRPRPQRMPRP	-0.124
31. RRIRGRPPRLPRPRPRPPQWPRP	0.801
32. RRIRWRPPRLPRPRPRPDEMPRP	-0.0412

----------
test system: Escherichia coli TOP10; assay: shrunken log2 fold change of peptide-encoding DNA abundance (4.5 h post-induction vs induction); higher = less antimicrobial activity (less host growth inhibition); conditions: time post-induction: 4.5 h; library: site-saturation at positions 5, 18, 19, 20
Classify as follows. Reported shrunken log2 fold change greater than or equal to -0.02: Criterion met. Reported shrunken log2 fold change below: Criterion not met.

1. RRIRARPPRLPRPRPRPEWPPRP	Criterion met
2. RRIRYRPPRLPRPRPRPSCYPRP	Criterion not met
3. RRIRIRPPRLPRPRPRPFLQPRP	Criterion not met
4. RRIRNRPPRLPRPRPRPEIGPRP	Criterion met
5. RRIRWRPPRLPRPRPRPMNIPRP	Criterion not met
6. RRIRVRPPRLPRPRPRPAPHPRP	Criterion met
7. RRIRTRPPRLPRPRPRPWFSPRP	Criterion not met
8. RRIRRRPPRLPRPRPRPRAEPRP	Criterion met
9. RRIRQRPPRLPRPRPRPEYDPRP	Criterion not met
10. RRIRCRPPRLPRPRPRPTSDPRP	Criterion met
11. RRIRERPPRLPRPRPRPYIKPRP	Criterion not met
12. RRIRHRPPRLPRPRPRPSFWPRP	Criterion met
13. RRIRSRPPRLPRPRPRPTATPRP	Criterion met
14. RRIRPRPPRLPRPRPRPMCMPRP	Criterion not met

----------
system: Escherichia coli TOP10; experiment: shrunken log2 fold change of peptide-encoding DNA abundance (4.5 h post-induction vs induction); higher = less antimicrobial activity (less host growth inhibition); conditions: time post-induction: 4.5 h; library: site-saturation at positions 5, 18, 19, 20;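 note: peptides expressed intracellularly from a pBAD plasmid library in pooled LB shake-flask culture, induced with 0.3% L-arabinose, DNA abundance read by NGS, three biological replicates, DESeq2 with apeglm shrinkage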
Below, each of the sequences is paired with its reported shrunken log2 fold change value.
experimentalEndpoint: shrunken log2 fold change

1. RRIRWRPPRLPRPRPRPVLKPRP	0.637
2. RRIRNRPPRLPRPRPRPRMSPRP	-0.238
3. RRIRDRPPRLPRPRPRPNPLPRP	1.05
4. RRIRNRPPRLPRPRPRPEPLPRP	0.00741
5. RRIRMRPPRLPRPRPRPLILPRP	-0.429
6. RRIRYRPPRLPRPRPRPMQLPRP	0.219
7. RRIRARPPRLPRPRPRPAVNPRP	0.102
8. RRIRYRPPRLPRPRPRPMFAPRP	-0.117
9. RRIRQRPPRLPRPRPRPYHGPRP	-0.126
10. RRIRIRPPRLPRPRPRPTNYPRP	-0.745
11. RRIRCRPPRLPRPRPRPSPSPRP	0.128
12. RRIRQRPPRLPRPRPRPFTDPRP	0.0299
13. RRIRPRPPRLPRPRPRPLQLPRP	-0.0598
14. RRIRHRPPRLPRPRPRPKRAPRP	0.0906
15. RRIRDRPPRLPRPRPRPFDWPRP	0.374
